System: Human colon carcinoma HCT-116 cells
Protocol Notes: In vitro cytotoxicity, sulforhodamine B (SRB) assay
Type: cell-based
Assay Context: 72-hr incubation
Listing of recorded IC50 by entry.
Give just the number in nM; leave the unit off.

Compound	Target Or System	IC50 / nM
CNC(=O)OCc1c(COC(=O)NC)c(-c2ccc(Cl)cc2)n2c1Cc1ccccc1C2 [DA-1117]	Human colon carcinoma HCT-116 cells	356
CNC(=O)OCc1c(COC(=O)NC)c(-c2ccc(F)c(F)c2)n2c1Cc1ccccc1-2 [DA-1027]	Human colon carcinoma HCT-116 cells	878

Ask | Item under review: CNC(=O)OCc1c(COC(=O)NC)c(-c2ccc(OC)cc2)n2c1Cc1ccccc1C2 [DA-1109] . Reported IC50?
Reply | 1110

* * *

Listing of recorded IC50 by entry.
Test system: CCRF-CEM/VBL
Protocol Notes: In vitro cytotoxicity, XTT assay, vinblastine resistant subline
Assay type: cell-based, human
Assay Context: Homo sapiens, CCRF-CEM; XTT assay, 72-hr incubation
Give just the number in nM; leave the unit off.

Illustrative cases are given below, each with its answer.
Molecule	Target Or System	Recorded Number
CNC(=O)OCc1c(COC(=O)NC)c(-c2ccccc2OC)n2c1Cc1ccccc1-2 [DA-1124]	CCRF-CEM/VBL	243
COc1cccc(OC)c1-c1c(CO)c(CO)c2n1-c1ccccc1C2 [DA-1126]	CCRF-CEM/VBL	251
COc1ccc(-c2c(CO)c(CO)c3n2-c2ccccc2C3)cc1OC [DA-1097]	CCRF-CEM/VBL	1140
CNC(=O)OCc1c(COC(=O)NC)c(-c2ccc(OC)cc2)n2c1Cc1ccccc1-2 [DA-1012]	CCRF-CEM/VBL	70
CNC(=O)OCc1c(COC(=O)NC)c2n(c1C)-c1ccccc1C2 [DA-1100]	CCRF-CEM/VBL	126

Ask | Item under review: CNC(=O)OCc1c(COC(=O)NC)c(-c2ccccc2)n2c1Cc1ccccc1-2 [DA-1022] . Reported IC50?
Reply | 1620

Ask | Item under review: COc1cc(-c2c(CO)c(CO)c3n2-c2ccccc2C3)cc(OC)c1OC [DA-1128] . Reported IC50?
Reply | 1140

Ask | Item under review: COc1ccccc1-c1c(CO)c(CO)c2n1-c1ccccc1C2 [DA-1123] . Reported IC50?
Reply | 1900

Ask | Item under review: COc1ccc(-c2c(CO)c(CO)c3n2-c2ccccc2C3)cc1 [DA-1005] . Reported IC50?
Reply | 1670

* * *

Tested on: Human mammary carcinoma (MX-1) tumor cells
Protocol Notes: In vitro cytotoxicity, sulforhodamine B (SRB) assay
Format: cell-based
Assay Context: Homo sapiens, 72-hr incubation
Text: Human colon carcinoma HCT-116 cells, human prostate adenocarcinoma PC-3 and adenocarcinoma SK-OV-3 cells were obtained from American Type Culture Collection (ATCC, Rockville, Md.). Human mammary carcinoma (MX-1) tumor cells were obtained from MSKCC cell bank. […]
Consider the cut-off 700 nM. If the recorded IC50 is strictly smaller, the label is Fulfilled; if not, the label is Not fulfilled.

Compound	Assigned Class
CNC(=O)OCc1c(COC(=O)NC)c(-c2ccc(OC)cc2)n2c1Cc1cc(OC)ccc1-2	Not fulfilled
OCc1c(CO)c(-c2ccccc2)n2c1Cc1ccccc1-2	Not fulfilled
Cc1c(CO)c(CO)c2n1Cc1ccccc1C2	Fulfilled
CCc1c(CO)c(CO)c2n1-c1ccccc1C2	Not fulfilled
CC[C@]1(O)C[C@@H]2CN(CCc3c([nH]c4ccccc34)[C@@](C(=O)OC)(c3cc4c(cc3OC)N(C)[C@H]3[C@@](O)(C(=O)OC)[C@H](OC(C)=O)[C@]5(CC)C=CCN6CC[C@]43[C@@H]65)C2)C1 [Vinblastine, reference compound]	Fulfilled

Ask | In plain terms, does "CNC(=O)OCc1c(COC(=O)NC)c2n(c1C)Cc1ccccc1C2" come in under 700 nM for IC50?
Reply | Not fulfilled

Ask | In plain terms, does "CCc1c(COC(=O)NC)c(COC(=O)NC)c2n1-c1ccccc1C2" come in under 700 nM for IC50?
Reply | Fulfilled

The reported measurements were obtained from patent US8410130B2.
